Data provenance is patent US8080665B2.

Observed pKi, system hMCD (Homo sapiens).
pKi: −log10 of the molar value.
assayEndpoint: pKi

COc1ccc(S(=O)(=O)N2CCC(NC(=O)N(c3ccc4nc(S)sc4c3)C(C)C)CC2)cc1 [CBM-000302407] : 7.76
CCCCS(=O)(=O)N1CCC(NC(=O)N(c2ccc3nc(S)sc3c2)C(C)C)CC1 [CBM-000302276] : 9.15
CC(C)N(C(=O)NC1CCN(S(=O)(=O)c2ccc(C(C)(C)C)cc2)CC1)c1ccc2nc(S)sc2c1 [CBM-000302344] : 6.88
CC(C)N(C(=O)NC1CCN(c2ccc(OC(F)(F)F)cc2)CC1)c1ccc2nc(S)sc2c1 [CBM-000302361] : 7.06
CC(C)N(C(=O)NC1CCN(S(=O)(=O)c2cccc(C(F)(F)F)c2)CC1)c1ccc2nc(S)sc2c1 [CBM-000302280] : 8.59
CC(C)N(C(=O)NC1CCN(S(=O)(=O)c2ccc(C(F)(F)F)cc2)CC1)c1ccc2nc(S)sc2c1 [CBM-000302279] : 7.21

* * *

Target protein (sequence): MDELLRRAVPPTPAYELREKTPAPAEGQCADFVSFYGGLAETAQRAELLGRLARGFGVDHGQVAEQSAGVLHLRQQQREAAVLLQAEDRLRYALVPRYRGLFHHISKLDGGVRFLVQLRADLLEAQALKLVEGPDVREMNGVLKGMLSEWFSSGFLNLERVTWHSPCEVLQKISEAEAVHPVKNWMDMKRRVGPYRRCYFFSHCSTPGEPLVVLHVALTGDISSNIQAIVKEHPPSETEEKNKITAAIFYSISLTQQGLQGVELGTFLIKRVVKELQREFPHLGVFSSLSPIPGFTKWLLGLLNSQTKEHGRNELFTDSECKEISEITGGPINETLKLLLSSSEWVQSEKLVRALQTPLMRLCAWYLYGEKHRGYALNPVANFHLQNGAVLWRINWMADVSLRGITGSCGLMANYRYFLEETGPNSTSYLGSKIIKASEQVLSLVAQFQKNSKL
pKi: −log10 of the molar value.
assayEndpoint: pKi

CC(C)N(C(=O)NC1CCN(S(=O)(=O)c2ccc(OC(F)(F)F)cc2)CC1)c1ccc2nc(S)sc2c1 [CBM-000302278] : 6.98
CC(C)Oc1ccc(S(=O)(=O)N2CCC(NC(=O)N(c3ccc4nc(S)sc4c3)C(C)C)CC2)cc1 [CBM-000302368] : 6.20
CC(C)N(C(=O)NC1CCN(S(=O)(=O)c2cccc(C#N)c2)CC1)c1ccc2nc(S)sc2c1 [CBM-000302343] : 8.42
COc1ccc(C(=O)N2CCC(NC(=O)N(c3ccc4nc(S)sc4c3)C(C)C)CC2)cc1 [CBM-000302359] : 8.14
CC(C)N(C(=O)NC1CCN(S(=O)(=O)c2ccc(F)c(Cl)c2)CC1)c1ccc2nc(S)sc2c1 [CBM-000302406] : 8.85
CC(C)N(C(=O)NC1CCN(C(=O)CCC2CCCC2)CC1)c1ccc2nc(S)sc2c1 [CBM-000302275] : 7.65
CC(C)N(C(=O)NC1CCN(C(=O)Nc2ccc(C(F)(F)F)cc2)CC1)c1ccc2nc(S)sc2c1 [CBM-000302219] : 7.52

* * *

Each record here notes measured pKi.
Target chain: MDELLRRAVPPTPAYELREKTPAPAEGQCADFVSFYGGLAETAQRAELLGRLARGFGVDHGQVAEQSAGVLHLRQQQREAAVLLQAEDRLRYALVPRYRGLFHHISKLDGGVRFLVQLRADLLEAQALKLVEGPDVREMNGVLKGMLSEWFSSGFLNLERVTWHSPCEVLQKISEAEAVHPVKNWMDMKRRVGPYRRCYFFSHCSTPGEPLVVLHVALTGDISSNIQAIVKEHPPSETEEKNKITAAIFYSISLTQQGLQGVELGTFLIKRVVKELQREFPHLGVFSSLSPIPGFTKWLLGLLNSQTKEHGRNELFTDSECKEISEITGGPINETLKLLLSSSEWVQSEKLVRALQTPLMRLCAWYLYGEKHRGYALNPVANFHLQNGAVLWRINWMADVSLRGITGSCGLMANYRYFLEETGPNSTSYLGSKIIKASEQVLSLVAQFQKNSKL
pKi: −log10 of the molar value.
assayEndpoint: pKi

CC(C)N(C(=O)NC1CCN(C(=O)OCc2ccccc2)CC1)c1ccc2nc(S)sc2c1 : 7.96
CC(C)N(C(=O)NC1CCN(S(=O)(=O)c2cnc(Cl)c(Br)c2)CC1)c1ccc2nc(S)sc2c1 : 7.71
CCCNC(=O)N1CCC(NC(=O)N(c2ccc3nc(S)sc3c2)C(C)C)CC1 : 7.39
CC(C)N(C(=O)NC1CCN(S(=O)(=O)c2ccc(C#N)cc2)CC1)c1ccc2nc(S)sc2c1 : 6.91
CC(=O)c1ccc(S(=O)(=O)N2CCC(NC(=O)N(c3ccc4nc(S)sc4c3)C(C)C)CC2)cc1 : 7.07
CC(C)N(C(=O)NC1CCN(C(=O)CCc2ccccc2)CC1)c1ccc2nc(S)sc2c1 : 7.69
CC(C)c1ccc(S(=O)(=O)N2CCC(NC(=O)N(c3ccc4nc(S)sc4c3)C(C)C)CC2)cc1 : 6.90
CC(C)CCC(=O)N1CCC(NC(=O)N(c2ccc3nc(S)sc3c2)C(C)C)CC1 : 7.63
